Biological target: PqsR (Pseudomonas aeruginosa)
Sequence (Q9I4X0 1-332): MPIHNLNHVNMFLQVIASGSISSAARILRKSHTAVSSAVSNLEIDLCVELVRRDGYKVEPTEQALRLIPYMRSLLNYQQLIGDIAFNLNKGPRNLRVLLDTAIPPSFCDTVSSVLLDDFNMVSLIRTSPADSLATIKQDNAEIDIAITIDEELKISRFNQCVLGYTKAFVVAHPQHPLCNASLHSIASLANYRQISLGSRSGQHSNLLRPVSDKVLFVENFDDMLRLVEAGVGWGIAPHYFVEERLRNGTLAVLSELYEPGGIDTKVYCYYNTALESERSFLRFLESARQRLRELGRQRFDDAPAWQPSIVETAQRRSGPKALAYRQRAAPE
Experiment: cell-based
Design: assayed for their agonist and antagonist activities in a whole P. aeruginosa bacterial cell assay; endogenous in cells; host or cells: P. aeruginosa PAO1 wild type, ΔpqsA or ΔpqsAH strains carrying a chromosomal (mini)CTX::pqsA'-lux fusion
attribute.measured: IC50 (µM)
Give just the numeric value; µM need not be written.

Prompt line: Record request: IC50 value, item CCCCCCCCCc1nc2cc(Cl)ccc2c(=O)n1N [compound 23]
Response line: 5

----------
Target: PqsR (Pseudomonas aeruginosa)
Assay: cell-based
Design: assayed for their agonist and antagonist activities in a whole P. aeruginosa bacterial cell assay; endogenous in cells; host or cells: P. aeruginosa PAO1 wild type, ΔpqsA or ΔpqsAH strains carrying a chromosomal (mini)CTX::pqsA'-lux fusion
Settings: Figure 6 (QZNs); P. aeruginosa ΔpqsA miniCTX::pqsA'-lux strain; read-out: Agonist EC50±SD
attribute.measured: pEC50
Formally, pEC50 is defined as -log10 of the concentration c, with c in mol/L.

Below, each entry is followed by its recorded pEC50 result.
>>> measured("CCCCCCCCCc1nc2cc(F)ccc2c(=O)n1OC [compound 16]")
5.66
>>> measured("CCCCCCCCCc1nc2cc(Cl)ccc2c(=O)n1O [compound 11]")
4.90
>>> measured("CCCCCCCCCc1nc2cc(Cl)ccc2c(=O)n1OC [compound 15]")
4.43
>>> measured("CCCCCCCCCc1nc2cc(F)ccc2c(=O)n1O [compound 12]")
4.68
>>> measured("CCCCCCCc1nc2ccccc2c(=O)n1O [compound 9]")
4.27

Prompt line: Record request: pEC50 value, item CCCCCCCCCc1nc2cc(F)c(F)cc2c(=O)n1OC [compound 17]
Response line: 4.27

Prompt line: Record request: pEC50 value, item CCCCCCCCCc1nc2ccccc2c(=O)n1O [compound 10]
Response line: 4.52

----------
attribute.measured: melting point

Below, each entry is followed by its recorded melting point result.
>>> measured("CCCCCCCCCc1nc2ccccc2c(=O)n1CCN")
"77 to 81 °C"
>>> measured("CCCCCCCCCc1nc2cc(Cl)ccc2c(=O)n1CCN")
"69 to 72 °C"
>>> measured("CCCCCCCCCc1nc2ccc(Cl)cc2c(=O)n1CCN")
"72 to 74 °C"

# next compound below
Prompt line: Record request: melting point value, item CCCCCCCCCc1nc2cc(Cl)ccc2c(=O)n1CCCN
Response line: 82 to 95 °C

----------
# key: entry, value: pEC50
Target: PqsR (Pseudomonas aeruginosa)
Sequence (Q9I4X0 1-332): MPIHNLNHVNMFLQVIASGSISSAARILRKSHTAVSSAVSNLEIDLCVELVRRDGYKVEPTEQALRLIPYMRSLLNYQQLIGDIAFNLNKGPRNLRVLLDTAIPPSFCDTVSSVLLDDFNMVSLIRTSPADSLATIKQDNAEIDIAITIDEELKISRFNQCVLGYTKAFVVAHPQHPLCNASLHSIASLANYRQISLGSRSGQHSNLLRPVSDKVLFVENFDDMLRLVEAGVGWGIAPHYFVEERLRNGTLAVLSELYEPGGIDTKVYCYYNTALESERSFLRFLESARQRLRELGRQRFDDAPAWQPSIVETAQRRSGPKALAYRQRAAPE
Experiment: cell-based
Set-up: assayed for their agonist and antagonist activities in a whole P. aeruginosa bacterial cell assay; endogenous in cells; host or cells: P. aeruginosa PAO1 wild type, ΔpqsA or ΔpqsAH strains carrying a chromosomal (mini)CTX::pqsA'-lux fusion
Details: Figure 2 (AQs); P. aeruginosa ΔpqsA CTX::pqsA'-lux strain; read-out: Agonist EC50 ±SD
Formally, pEC50 is defined as -log10 of the concentration c, with c in mol/L.

Prompt line: Record request: pEC50 value, item CCCCCCCCCc1cc(O)c2ccccc2n1 [compound 3, 2-nonyl-4-hydroxyquinoline]
Response line: 6.40

Prompt line: Record request: pEC50 value, item CCCCCCCc1[nH]c2cc(Cl)ccc2c(=O)c1O [compound 5]
Response line: 7.85

Prompt line: Record request: pEC50 value, item CCCCCCCc1[nH]c2ccccc2c(=O)c1N [5a]
Response line: 6.40

Prompt line: Record request: pEC50 value, item CCCCCCCc1[nH]c2ccccc2c(=O)c1O [compound 1, 2-heptyl-3-hydroxy-4(1H)-quinolone]
Response line: 5.72

Prompt line: Record request: pEC50 value, item CCCCCCCCCc1[nH]c2ccccc2c(=O)c1O [compound 4, 2-nonyl-3-hydroxy-4(1H)-quinolone]
Response line: 5.96

Prompt line: Record request: pEC50 value, item CCCCCCCc1cc(O)c2ccccc2n1 [compound 2, 2-heptyl-4-hydroxyquinoline]
Response line: 6.10
